Target: human IL-17A (human, UniProt Q16552 24-155)
Sequence (Q16552 24-155 limits assumed): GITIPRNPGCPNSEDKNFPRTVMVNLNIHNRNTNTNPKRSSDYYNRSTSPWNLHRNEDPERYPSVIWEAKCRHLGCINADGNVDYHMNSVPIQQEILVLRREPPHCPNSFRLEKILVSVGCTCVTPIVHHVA
Experiment: cell-based or functional assay
endpoint label: Potency (pM), IL-17-driven IL-6 production in HS27 cells

{"binder": "IL17-G9-6 (antibody, V domains shown) VH: EVQLLESGGGVVQPGRSLRLSCAASGFIFSDYGMHWVRQAPGKGLEWVAVISYDGSNKYYADSVKGRFTISRDNSKNTLYLEMNSLRPEDTAVYYCAKVGASGDYYYSYGLDVWGQGTTVTVSS VL: QSVLTQPPSASGTPGQTVSISCSGRQSNIGNHYVDWYQQVPGAAPKLLIYGDVIRPSGVPDRFSGSQSGTSASLAISGLQSEDEADYYCATWDDWLAGYVFGSGTKVTVLG", "observed measurement": 884}
{"binder": "B6-44 (antibody, V domains shown) VH: EVQLVQSGAEVKKPGSSVKVSCKASGGSFLSYGFSWVRQAPGQGLEWMGGITPFFGLADYAQKFQGRVTITADESTTTAYMELSGLTSDDTAVYYCARESSEFWNGYYCTQDFDLWGQGTTVTVSS VL: EIVLTQSPDFQSVTPKEKVTITCRASQDIGSDLHWYQQKPDQSPKLLIKYASNSISGVPSRFSGSGSGTDFTLTINGLEAEDAGTYYCHQTAYLPQTFGPGTKVDIK", "observed measurement": 120}
{"binder": "IL17-B6-15 (antibody, V domains shown, also called pJP245 B6.1 #15VH / pJP246 B6.1 #15Vk) VH: EVQLVQSGAEVKKPGESLKISCKASGGSFSGYGTSWVRQAPGQGLEWMGGITHFFGAVDYAQKFQGRVTITADESTTTAYMELSGLTSDDTAVYYCARDPNEFWNGYYATHDFDYWGQGTTVTVSS VL: EIVLTQSPDFQSVTPKEKVTITCRASQNIGAELHWYQQKPDQSPKLLIKYASHSISGVPSRFSGSGSGTDFTLTINGLEAEDAGTYYCHQTDRLPYSFGPGTKVDIK", "observed measurement": 24}
{"binder": "IL17-G9-1 (antibody, V domains shown) VH: EVQLLESGGGVVQPGRSLRLSCAASGFIFSNYGMHWVRQAPGKGLEWVAVISYDGSNKYYADSVKGRFTISRDNSKNTLYLEMNSLRPEDTAVYYCAKVGASGDYYYSYGLDVWGQGTTVTVSS VL: QSVLTQPPSASGTPGQTVSISCSGSHSNIGRHPVDWYQQVPGAAPKLLMYYGGYRPSGVPDRFSGSQSGTSASLAISGLQSEDEADYYCATWDDRLVGYVFGSGTKVTVLG", "observed measurement": 27}
{"binder": "IL17-G9-2 (antibody, V domains shown) VH: EVQLLESGGGVVQPGRSLRLSCAASGFIFRNYGMHWVRQAPGKGLEWVAVISYDGSNKYYADSVKGRFTISRDNSKNTLYLEMNSLRPEDTAVYYCAKVGASGDYYYSYGLDVWGQGTTVTVSS VL: QSVLTQPPSASGTPGQTVSISCSGSNSNIGRHPVDWYQQVPGAAPKLLIYYDDQRPSGVPDRFSGSQSGTSASLAISGLQSEDEADYYCATWDDSLGGYVFGSGTKVTVLG", "observed measurement": 24}
{"binder": "IL17-B6-46 (antibody, V domains shown, also called pJP253 B6.1 #46VH / pJP254 B6.1 #46Vk) VH: EVQLVQSGAEVKKPGESLKISCKASGGSFISYGISWVRQAPGQGLEWMGGITHFFGSTDYAQKFQGRVTITADESTTTAYMELSGLTSDDTAVYYCAREPNEFWNGYYTTHDFDSWGQGTTVTVSS VL: EIVLTQSPDFQSVTPKEKVTITCRASQAIGSELHWYQQKPDQSPKLLIKYASYSVSGVPSRFSGSGSGTDFTLTINGLEAEDAGTYYCHQSASLPYTFGQGTKVDIK", "observed measurement": 59}
{"binder": "IL17-G9-M2 (antibody, V domains shown) VH: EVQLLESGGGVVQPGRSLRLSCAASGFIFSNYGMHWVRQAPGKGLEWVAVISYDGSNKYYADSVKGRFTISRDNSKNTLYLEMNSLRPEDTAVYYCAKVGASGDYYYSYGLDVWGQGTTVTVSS VL: QSVLTQPPSASGTPGQTVSISCSGHNSNIGYHYVHWYQQVPGAAPKLLIYGDGWRPSGVPDRFSGSQSGTSASLAISGLQSEDEADYYCGTWDDWLGGYVFGTGTKVTVLG", "observed measurement": 38}
{"binder": "IL17-B6-29 (antibody, V domains shown) VH: EVQLVQSGAEVKKPGSSVKVSCKASGGSFISYGYNWVRQAPGQGLEWMGGITPFFGTADYAQKFQGRVTITADESTTTAYMELSGLTSDDTAVYYCAREPNDFWNGYYTTHHFDYWGQGTTVTVSS VL: DVVMTQSPDFQSVTPKEKVTITCRASQNIGSALHWYQQKPDQSPKLLIKYASQSISGVPSRFSGSGSGTDFTLTINGLEAEDAGTYYCHQSTSLPHTFGQGTKLDIKR", "observed measurement": 134}
{"binder": "IL17-B6-5 (antibody, V domains shown, also called pJP243 B6.1 #5VH / pJP244 B6.1 #5VK) VH: EVQLVQSGAEVKKPGESVKISCKASGGSFRSYGISWVRQAPGQGLEWMGGITHFFGITDYAQKFQGRVTITADESTTTAYMELSGLTSDDTAVYYCAREPNDFWNGYYDTHDFDSWGQGTTVTVSS VL: EIVLTQSPDFQSVTPKEKVTITCRASQNIGSELHWYQQKPDQSPKLLIKYASHSISGVPSRFSGSGSGTDFTLTINGLEAEDAATYYCHQSDTLPHTFGQGTKVDIK", "observed measurement": 18}
{"binder": "IL17-B6-11 (antibody, V domains shown) VH: EVQLVQSGAEVKKPGSSVKVSCKASGGSFLSYGFSWVRQAPGQGLEWMGGITPFFGFADYAQKFQGRVTITADESTTTAYMELSGLTSDDTAVYYCAREPNDFWNGYYTTHHFDYWGQGTTVTVSS VL: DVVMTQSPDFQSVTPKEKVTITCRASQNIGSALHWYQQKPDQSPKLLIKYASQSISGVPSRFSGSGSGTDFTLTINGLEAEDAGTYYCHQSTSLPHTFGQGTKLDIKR", "observed measurement": 20}
